Assign pKd to each entry below.
target: T1, Human Galectin-3 protein (Acro Biosystems, GA3-H5129) (human, UniProt P17931 2-250); experiment: SPR Biacore T200, antibody captured, Galectin-3 analyte
T1 construct: Bought protein; also called hGal3; Gal3; not shown: linker-spaced 6-histidine tag
T1 sequence (P17931 2-250): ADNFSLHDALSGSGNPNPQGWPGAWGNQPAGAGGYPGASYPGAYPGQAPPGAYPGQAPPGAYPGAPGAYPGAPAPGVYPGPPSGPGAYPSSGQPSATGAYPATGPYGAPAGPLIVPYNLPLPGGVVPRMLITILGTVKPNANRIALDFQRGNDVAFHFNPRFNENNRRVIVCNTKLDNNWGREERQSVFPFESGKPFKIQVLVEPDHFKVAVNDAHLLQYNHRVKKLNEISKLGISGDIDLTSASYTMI
Numbers only, as −log10 of the molar value.

[
  {
    "binder": "13G4.2F8 (antibody, V domains shown, murine antibody) VH: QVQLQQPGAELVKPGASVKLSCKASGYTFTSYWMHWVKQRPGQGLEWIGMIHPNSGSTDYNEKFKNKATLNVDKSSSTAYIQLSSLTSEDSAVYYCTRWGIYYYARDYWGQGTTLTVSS VL: DIVMTQSQKFMSTSVGERVSITCKASQNVGTNVAWYQQKAGQSLELLIYGASNRHTGVPDRFTGSGSGTDFTLTITNVQSEDMTNYFCEQYSNFPLTFGAGTKLELK",
    "pKd": 8.60
  }
]

# batch: return pKd for each of the 2 binders below
1. 7D8.2D8 (antibody, V domains shown, murine antibody) VH: EVQLVESGGGLVKPGGSLKLSCAASGFTFSSYAMSWVRQTPEKRLEWVATISDGGIYTYYPDNVKGRFTISRDNAKNNLFLQMSHLKSEDTAMYYCVRDGGYWGQGTTLTVSS VL: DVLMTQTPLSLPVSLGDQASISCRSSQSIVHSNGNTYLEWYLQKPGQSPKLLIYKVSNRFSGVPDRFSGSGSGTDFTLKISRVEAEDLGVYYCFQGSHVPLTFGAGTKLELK
2. 12G5.D7 (antibody, V domains shown, murine antibody) VH: QVQLKQSGAELVRPGASVKLSCKASGYTFTDYYINWVKQRPGQGLEWIARIYPGTGNTDYNEKFKGRATLTAEKSSSTAYMQLSSLTSEDSAVYFCARFAYYYGSGGYFDYWGHGTTLTVSS VL: DILMTQSPSSMSVSLGDTVSITCHASQGINSNMGWLQQKPGKSFKGLIYHATNLEDGVPSRFSGSGSGADYSLTISSLESEDFADYYCVQYAQFPPTFGSGTKLEIK

A:
[8.60, 8.72]
